Test: NCI Yeast Anticancer Drug Screen. Data for the mec2-1 strain (AID 157)
Details: S. cerevisiae mec2-1 strain, at 50.0 µM, hits give high values
The panel holds about 79,000 compounds, 15% with a hit somewhere; the sample as a whole holds those more often.
endpoint-name: growth inhibition (%)

• CCC1=C(CC2NCCc3cc(OC)c(OC)cc32)CC2c3ccccc3CCN2C1 (stereo unspecified) = -26.5
• Nc1n[nH][nH]c1=O = -26.1
• Cc1ccccc1N = -14.4
• O=C1C(F)=C(N2CC2)C(=O)C(N2CCOCC2)=C1N1CC1 = 89.8
• O=S(=O)(O)O.[Co+2].[NH-]CC[NH-].[NH-]CC[NH-].[NH-]CC[NH-] = 21.9
• CC(C)CCC1(CC[N+](C)(C)C)C(=O)NC(=O)NC1=O = -9.85
• O=C1C2CCN(CC2)C1Cn1cnc2c(Cl)ncnc21 (stereo unspecified) = 4.1
• Nc1cccc([As]=S)c1 (stereo unspecified) = 98.9
• C[C@]12CCNC(=O)C=C1CC[C@@H]1C2CC[C@@]2(C)C1CC[C@@H]2OC(=O)COc1ccc(N(CCCl)CCCl)cc1 (stereo partly specified) = 25.1
• C[C@]12C/C(=C/O)C(=O)C(O)=C1CC[C@@H]1C2CC[C@@]2(C)C1CC[C@@H]2O (stereo partly specified) = 59.4
• CC1(C)OCC(C2NC2C2COC(C)(C)O2)O1 (stereo unspecified) = -6.85
• COC(=O)C1(C(=O)OC)Cc2ccc(C)cc2C2=C1C(=O)c1ccccc1C2=O = -10.2
• O=C([CH-]C(=O)c1ccccc1)c1ccccc1.O=C([CH-]C(=O)c1ccccc1)c1ccccc1.[CH2-]CCC.[CH2-]CCC.[Sn+4] = 93.2
• CC1CCCC[N-]1.CC1CCCC[N-]1.N#C[S-].N#C[S-].[Cd] (stereo unspecified) = 66.7
• CCOC(=O)C[CH2][Sn]([Cl])([Cl])[Cl] = 22.5
• CC(C)CNP(=S)(NCC(C)C)c1ccccc1 = 12.9
• C=CCC1(OC(C)=O)CCC2C3CCC4CC=CCC4(C)C3CCC21C (stereo unspecified) = 4.5
• CCC1(OC(=O)CNC)C(=O)OCc2c1cc1n(c2=O)Cc2cc3ccccc3nc2-1 (stereo unspecified) = 83.7
• CC1=CC(=O)c2c(O)cccc2C1=O = 90.1
• COC(C)CCOC(=O)Cc1ccccc1 (stereo unspecified) = -5.25
• COC1OC(CN=[N+]=[N-])C2OC12 (stereo unspecified) = -0.3
• COc1ccc2c3c1OC1C4(OC)CCC5(c6c(O)ccc(O)c64)C(C2)N(C)CCC315 (stereo unspecified) = 4
• NS(=O)(=O)c1ccc([As](=O)(O)c2ccccc2)cc1 = -9.35
• CC1CCC2[S][Sn]3([NH]C2C1)[NH]C1CC(C)CCC1[S]3 (stereo unspecified) = 96.5
• CCOP(=O)(OCC)/C(C#N)=C(\C)c1ccco1 = -28.9
• CC(=O)O[C@H]1CCC2[C@@H]3CCC4c5nonc5CC[C@]4(C)C3CC[C@@]21C (stereo partly specified) = 5.55
• COCCCCCC(=O)CP(=O)(OC)OC = -1.4
• O=C(O)c1ccc(I)cc1.[Ni] = 5.7
• Oc1c(Cl)c(Cl)cc(Cl)c1Cl = 68.9
• O=C(CCN1CC2CCC(CC2)C1)c1cccs1 = -21.9
• CCCCCCC(=O)O[C@H]1CC[C@H]2[C@@H]3CCC4C/C(=N/NC(=O)c5cccc6c(=O)c7ccccc7[nH]c56)C=C(C)[C@]4(C)[C@H]3CC[C@]12C (stereo partly specified) = -0.85
• N.N.O=P([O-])([O-])CN(CP(=O)([O-])[O-])CP(=O)([O-])[O-].[Pt+2] = -9.8
• COc1ccc2c(c1O)CNCC2c1ccc(O)cc1O (stereo unspecified) = -12
• O=[N+]([O-])c1ccc(Cl)c([N+](=O)[O-])c1 = 98.5
• O=c1[nH]c(=S)[nH]c(O)c1/C=C1\C=CC=N1 = -3.95
• O=[N+]([O-])c1cc([N+](=O)[O-])c(Cl)s1 = 99.7
• c1ccc(CN2CCNCC2)cc1 = -14.4
• Nc1nc2ncnc(N)c2nc1-c1ccc(N(CCCl)CCCl)cc1 = 46
• CC(C)CC(=O)[O-].CC(C)CC(=O)[O-].N.N.N.N.[Co+3].[O-][Cl+3]([O-])([O-])O.[O-][Cl+3]([O-])([O-])[O-] = -6.2
• CCOS(=O)OCC = 0.35
• [Cl][Pt+2][Cl].[NH-]c1ccc([N+](=O)[O-])cc1[NH-] = 75.7
• CS(=N)(=O)CCC(N)C(=O)O (stereo unspecified) = 9.8
• CCN(CCCl)c1cc(CN(C)C)cc(NC(=O)c2ccc(C(=O)Nc3ccccc3)cc2)c1 = -18.4
• c1ccc(C2=NC(c3ccccc3)N3CC23c2ccccc2)cc1 (stereo unspecified) = 15.2
• C/C(=N/NC(N)=S)c1ccc(Cl)cc1 = 97.1
• COc1ccc(CC(N)c2ccccc2)cc1 (stereo unspecified) = 18.1
